The reported measurements were obtained from ChEMBL document CHEMBL3603776.

Please go through the items and note down their selectivity ratio.
# assay_protocol: Selectivity index, ratio of IC50 for rat L6 cells to IC50 for bloodstream forms of Trypanosoma brucei rhodesiense STIB 900
# Type: toxicity, cell-based
# run_conditions: read-out: Ratio IC50

Please review the entries below; each comes with its answer.
COc1cccc2c1C(=O)C=C(Oc1ccccc1)C2=O	2.74
Cc1ccc(OC2=CC(=O)c3c(O)cccc3C2=O)cc1	0.44
COc1cccc2c1C(=O)C=C(Oc1ccc(C)cc1)C2=O	2.71
COc1cccc2c1C(=O)C(Oc1ccccc1)=CC2=O	0.36
O=C1C(Oc2ccc(F)cc2)=CC(=O)c2c(O)cccc21	0.52

Okay, next one:
Determine from records and report selectivity ratio for O=C1C=C(Oc2ccccc2)C(=O)c2c(O)cccc21 1.76

###

# assay_protocol: Selectivity index, ratio of IC50 for rat L6 cells to IC50 for amastigotes of Leishmania donovani MHOM/ET/67/L82
# Assay type: toxicity, cell-based
# run_conditions: read-out: Ratio IC50
measured_metric: selectivity ratio
One number for each entry.

COc1ccc(OC2=CC(=O)c3cccc(O)c3C2=O)cc1	0.33

Please report selectivity ratio for every entry that follows.
1. O=C1C(Oc2ccccc2)=CC(=O)c2c(O)cccc21
2. COc1ccc(OC2=CC(=O)c3c(O)cccc3C2=O)cc1
3. COc1cccc2c1C(=O)C=C(Oc1ccc(NC(C)=O)cc1)C2=O
4. Cc1ccc(OC2=CC(=O)c3c(O)cccc3C2=O)cc1
5. Cc1ccc(OC2=CC(=O)c3cc4ccccc4cc3C2=O)cc1
6. CCCCCCCCCCCCCCCCOP(=O)([O-])OCC[N+](C)(C)C

1: 0.03; 2: 0.5; 3: 1.02; 4: 0.19; 5: 0.11; 6: 462

Please report selectivity ratio for every entry that follows.
1. CC(=O)Nc1ccc(OC2=CC(=O)c3ccccc3C2=O)cc1
2. COc1ccc(OC2=CC(=O)c3ccccc3C2=O)cc1

1: 0.83; 2: 1.15

###

# assay_protocol: Selectivity index, ratio of IC50 for rat L6 cells to IC50 for amastigotes of Leishmania donovani MHOM/ET/67/L82
# Assay type: toxicity, cell-based
# run_conditions: read-out: Ratio IC50
Please go through the items and note down their selectivity ratio.
Numbers only.

COc1cccc2c1C(=O)C(Oc1ccc(NC(C)=O)cc1)=CC2=O	0.11
CC(=O)Nc1ccc(OC2=CC(=O)c3c(O)cccc3C2=O)cc1	0.15
COc1cccc2c1C(=O)C(Oc1ccccc1)=CC2=O	0.05

Please report selectivity ratio for every entry that follows.
1. COc1cccc2c1C(=O)C=C(Oc1ccccc1)C2=O
2. CC(=O)Nc1ccc(OC2=CC(=O)c3cccc(O)c3C2=O)cc1

0.33
0.07

Determine from records and report selectivity ratio for O=C1C(Oc2ccc(F)cc2)=CC(=O)c2c(O)cccc21 0.47
